Test: growth of efflux-deficient E. coli DRC39 – strain DRC39, OD650, 48 h, E. coli filamentation inducers, primary screen (AID 1179);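 further: screen aims at cell division blockers that make cells filament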
Conditions: E. coli DRC39 delta-acrAB growth, higher = more signal, called active from +8 up or from −8 down
Observed Property: z-score

{"columns": ["Compound", "Reported"],
 "data": [
  ["O=C1O[C@H](c2ccccc2)[C@H](c2ccccc2)N2[C@H]1[C@@H](C(=O)N1CCN(c3ncccn3)CC1)[C@]1(C(=O)Nc3ccc(C#CCCO)cc31)[C@H]2c1ccc(OCCO)cc1", -0.432],
  ["COC(=O)[C@@]1(Cc2ccc(OC)cc2)[C@H]2c3cc(C(=O)N(C)C)n(CCF)c3C[C@H]2CN1C(=O)c1ccccc1", -0.143],
  ["CCCC=C(CCC)[C@@H](NC(=O)Cc1ccccc1)c1ccc(C(=O)OC)cc1", 0.543],
  ["C=CC[C@]1(C(=O)NCC(O)CO)N=C(c2ccc(OCCCO)cc2)O[C@H]1c1ccccc1N=[N+]=[N-] (some centres not stated)", -0.579],
  ["COCCOC(=O)N1C(=O)[C@@]2(c3cc(C#CCNC(N)=O)ccc31)[C@H](C(=O)N1CCCCCCC1)[C@H]1C(=O)O[C@H](c3ccccc3)[C@H](c3ccccc3)N1[C@@H]2c1ccc(OCCO)cc1", 0.531],
  ["Cc1cc(C)c(C(O)C2C=CC3C(=O)N(c4ccccc4)C(=O)C3N2Nc2ccc([N+](=O)[O-])cc2)c(C)c1 (configuration not stated)", -0.624],
  ["CN(C)C(=O)[C@]1(Cc2ccccc2N=[N+]=[N-])N=C(c2ccc(OCCCO)cc2)O[C@@H]1c1ccccc1CN=[N+]=[N-]", 0.7]
]}

----------
Target: Torsin-1A (Homo sapiens)
Assay: TOR1A wild-type binding on microarray – cell lysate, small-molecule microarray, lysate, 635/667 nm, primary screen (AID 1149)
Conditions: COS7 hTOR1A-WT lysate, 635 nm fluorescence, higher = more signal
Think of 0.03 as a floor: if composite z-score stands on it or above, it is Met; beneath it, Not met.

{"columns": ["Compound", "Cat"],
 "data": [
  ["CCCC=C(CCC)[C@@H](NS(=O)(=O)CC)c1ccccc1", "Met"],
  ["Cc1ccc(S[C@]2(C(=O)NCCN3CCOCC3)CC(=O)N(C3Cc4ccccc4C3)[C@@H]2c2ccc(CO)cc2)cc1", "Not met"],
  ["CO[C@H]1O[C@H](CO)[C@@H](OC(=O)Nc2cccc(F)c2)[C@H](OC(=O)Nc2ccc3c(c2)OCO3)[C@H]1OC(=O)Nc1ccc2c(c1)OCO2", "Met"],
  ["COC(=O)C(CC#Cc1ccc2c(c1)[C@]1(C(=O)N2)[C@H](c2ccc(OCCO)cc2)N2[C@H](c3ccccc3)[C@H](c3ccccc3)OC(=O)[C@H]2[C@@H]1C(=O)O)C(=O)OC", "Met"],
  ["CC(C)N1C(=O)c2ccccc2[C@](C)(C(=O)O)[C@@H]1c1ccc(CO)cc1", "Not met"],
  ["C=CCOC(=O)[C@@H]1[C@H]2C(=O)O[C@H](c3ccccc3)[C@H](c3ccccc3)N2[C@H](c2ccc(OCCOC(=O)[C@@H]3C[C@@H]4C(=O)N[C@@H](CCCCNC(C)=O)C(=O)N4[C@@H]3c3ccc(O)cc3)cc2)[C@@]12C(=O)Nc1ccc(I)cc12", "Met"],
  ["CCN(CC)c1ccc(N2CC=CC34O[C@@H]5/C=C\\CCCOC(=O)C5[C@H]3C(=O)N(CCCCCCO)[C@@H]4C2=O)cc1 (stereo not given in full)", "Not met"],
  ["CO[C@H]1O[C@H](CO)[C@@H](OC(=O)c2ccc(Br)cc2)[C@@H]2OC(=O)[C@H](Cc3cccc(Br)c3)C/C=C/C[C@@H](Cc3cccc(Br)c3)C(=O)O[C@@H]12", "Not met"],
  ["COC(=O)[C@@]1(Cc2ccc(F)cc2)[C@H]2c3cc(C(=O)N4CCCC4)n(Cc4ccccc4)c3C[C@H]2CN1C(=O)c1ccccc1", "Not met"],
  ["C=CC[C@]1(C(=O)N(C)C)N=C(c2ccc(OCCCO)cc2)O[C@H]1c1ccccc1", "Met"],
  ["[N-]=[N+]=NCc1ccccc1[C@H]1OC(c2ccc(OCCCO)cc2)=N[C@@]1(Cc1ccccc1N=[N+]=[N-])C(=O)N1CCCCC1", "Met"],
  ["C=CCOc1ccc([C@@H]2CC=C(C(=O)OCC)[C@H](c3cccc(Br)c3)N2S(=O)(=O)c2ccc(C)cc2)cc1", "Met"],
  ["COCCOC(=O)N1C(=O)[C@@]2(c3cc(C#CCNC(N)=O)ccc31)[C@H](c1ccc(OCCO)cc1)N1[C@H](c3ccccc3)[C@H](c3ccccc3)OC(=O)[C@H]1[C@@H]2C(=O)N1CCN(c2ncccn2)CC1", "Met"],
  ["COC(=O)[C@@]1(Cc2ccc(OC)cc2)[C@H]2c3cc(C(=O)N4CCCC4)n(CCc4ccc(O)c(OC)c4)c3C[C@H]2CN1C(=O)c1ccccc1", "Met"],
  ["C[N+](C)(C)CCCC[C@@H]1NC(=O)[C@@H]2C[C@H](C(=O)O)[C@H](c3cccc(OCCO)c3)N2C1=O", "Met"],
  ["C=CC[C@]1(C(=O)NCC(O)CO)N=C(c2ccc(OCCCO)cc2)O[C@H]1c1ccccc1N=[N+]=[N-] (stereo not given in full)", "Met"],
  ["COc1ccc([Si](C)(C)[C@@H]2[C@@H](CCO)O[C@]3(C(=O)N(Cc4ccccc4)c4ccc(N5C(=O)COc6ccccc65)cc43)[C@H]2C)cc1", "Not met"],
  ["COCC1=C([C@H](O)CCc2ccccc2)[C@H](CO)[C@@H]2C(=O)N(C)C(=O)[C@@H]2C1", "Met"],
  ["C=CCC(OC(C)=O)[C@@H]1[C@@H](N(Cc2ccc(-c3ccccc3)cc2)C(=O)c2cccc3ccccc23)c2cc(OCCCO)ccc2N1C(=O)c1ccc2ccccc2n1 (stereo not given in full)", "Met"],
  ["CC(C)C[C@@H]1NC(=O)[C@@]23C(=O)N[C@@H](Cc4ccccc4)C2[C@H](C)[C@@]2(C)O[C@H]2C3/C=C/C/C=C\\CNC(=O)[C@@H]2CCCN2C1=O (stereo not given in full)", "Met"],
  ["C=CCC(OC(C)=O)[C@@H]1[C@@H](N(Cc2ccc(-c3ccccc3)cc2)C(=O)Cc2ccc(OC)cc2)c2cc(OCCCO)ccc2N1C(=O)c1ccc(-c2ccccc2)cc1 (stereo not given in full)", "Met"],
  ["COCCOC(=O)N1C(=O)[C@@]2(c3cc(C#Cc4ccc(OC)cc4)ccc31)[C@H](C(N)=O)[C@H]1C(=O)O[C@H](c3ccccc3)[C@H](c3ccccc3)N1[C@@H]2c1ccc(OCCO)cc1", "Met"],
  ["C=CCNC(=O)[C@@H]1[C@H]2C(=O)O[C@H](c3ccccc3)[C@H](c3ccccc3)N2[C@H](c2ccc(O)cc2)[C@@]12C(=O)Nc1ccc(C#CCCO)cc12", "Not met"],
  ["COC(=O)c1ccc(OC)c(/C=C\\CC(CCc2ccccc2)OC(C)=O)c1 (stereo not given)", "Not met"],
  ["NC(=O)NCC#Cc1ccc2c(c1)[C@]1(C(=O)N2)[C@H](c2ccc(O)cc2)N2[C@H](c3ccccc3)[C@H](c3ccccc3)OC(=O)[C@H]2[C@@H]1C(=O)NC[C@H](O)c1ccccc1", "Not met"]
]}
